Experiment: chemical genetic growth profiling, strain panel (AID 1159580);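 note: tested at 20 µM; growth read once vehicle control cultures reached saturation at 30 °C; lower values mean less growth of the strain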
Conditions: S. cerevisiae deletion strains, growth OD, locus YLR058C, strain SHM2, hits give low values
About 2,000 (36%) of roughly 5,500 compounds were called active. Inconclusive results (about 18%) are left out. The list shows a part of the results.
Rule: measured normalized growth below 1 gets satisfied; anything equal to or greater than 1 gets not satisfied.

Q: Consider CC1=C(O)C(=O)C=C2C1=CC=C1[C@@]2(C)CC[C@@]2(C)[C@@H]3C[C@](C)(C(=O)O)CC[C@]3(C)CC[C@]12C . Does its normalized growth lie strictly below 1?
A: satisfied

Q: Entry to check: COc1ccc(C(=O)c2ccccc2)c(O)c1O
A: satisfied

Q: Would you kindly repeat that for CCOc1ccc(C(=O)c2ccc(O)c(O)c2O)cc1 ?
A: satisfied

Q: // repeat for CCOc1ccc(C(=O)c2cc(O)c(OC)c(OC)c2O)cc1 and report
A: not satisfied
